Sourced from PubChem BioAssay AID1159580

assay: chemical genetic growth profiling, strain panel (AID 1159580);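 also: tested at 20 µM; growth read once vehicle control cultures reached saturation at 30 °C; 1 = growth at the plate median or of vehicle wells; lower values mean less growth of the strain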; settings: S. cerevisiae deletion strains, growth OD, locus YJL166W, strain qcr8, hits give low values
The campaign covered roughly 5,500 compounds. About 2,000 (36%) were called active. Inconclusive results (about 18%) are left out. The list shows a part of the results.
Entries annotated with measured normalized growth
When you answer, write just the number.

# annotated cases, reported normalized growth shown
Compound	normalized growth
Cc1ccc(C(=O)c2ccc(CC(=O)O)n2C)cc1	1.02
Clc1ccc(COC(Cn2ccnc2)c2ccc(Cl)cc2Cl)c(Cl)c1 (configuration not stated)	0.0609
CC(=O)O[C@@H]1CC2C(C)(C)[C@H](O)CC[C@]2(C)C2CC[C@@]3(C)[C@H](c4ccoc4)OC(=O)C4OC43[C@@]21C (some centres not stated)	1.02
CC(=O)O[C@H]1C[C@@H](OC(C)=O)C(C)(C)C2C[C@@H](O)[C@]3(C)C(CC[C@@]4(C)[C@H](c5ccoc5)OC(=O)[C@H]5O[C@]543)[C@]21C (some centres not stated)	0.955
Clc1ccccc1CN1CCc2sccc2C1	0.981

// query normalized growth value for entry CC(=O)O[C@H]1CC[C@@]2(C)C(C[C@@H](OC(C)=O)[C@]3(C)C2CC[C@@]2(C)[C@H](c4ccoc4)OC(=O)[C@H]4O[C@]423)C1(C)C (some centres not stated)
1

// query normalized growth value for entry `Clc1ccc(CO/N=C(/Cn2ccnc2)c2ccc(Cl)cc2Cl)c(Cl)c1`
0.0665

// query normalized growth value for entry CC(=O)O[C@@H]1CC2C(C)(C)C(=O)C3OC3[C@]2(C)C2CC[C@@]3(C)[C@H](c4ccoc4)OC(=O)C4OC43[C@@]21C (some centres not stated)
0.987

// query normalized growth value for entry `CN(C)C(=O)Oc1ccc[n+](C)c1`
0.996

// query normalized growth value for entry CC(=O)O[C@@H]1CC2C(C)(C)[C@@H](O)CC[C@]2(C)C2CC[C@@]3(C)[C@H](c4ccoc4)OC(=O)[C@H]4O[C@]43[C@@]21C (some centres not stated)
0.988

// query normalized growth value for entry `C=C1C(=O)[C@]23[C@H](O)[C@H]1CC[C@H]2[C@@]12CO[C@]3(O)[C@H](O)[C@@H]1C(C)(C)CC[C@@H]2O`
1.02
